target: D(1A) dopamine receptor (Homo sapiens); assay: Antagonist of Human D 1 Dopamine Receptor: qHTS; conditions: HEK293 TREx D1 cells, calcium flux, dopamine EC80; at 10 µM; stronger effect = lower value; further: on the % scale 0 is the no-effect control and ±100 the full control effect
The campaign covered roughly 360,000 compounds. About 11,000 (3.1%) were called active. Only a selection was taken, and actives are over-represented in it overall.
ENDPOINT: activity change, negative = inhibition

Some compounds with known activity change, negative = inhibition results, for comparison:
CCc1ccc2oc(-c3ccc(C)c(NC(=O)/C=C/c4ccco4)c3)nc2c1
-0.213% (inactive)
COc1ccc(S(=O)(=O)N2CCCCC2)cc1Br
-47.9% (active)
COc1ccc(NC(=O)Nc2ccc3nsnc3c2)cc1
-36.6% (active)

Reported activity change, negative = inhibition for O=C(CCN1C(=O)c2ccccc2C1=O)NNC(=O)c1ccc(Cl)cc1Cl was -4.44% (inactive)

Documented activity change, negative = inhibition of Cc1c(C(=O)N2CCOCC2)[nH]c2ccc(OCc3ccccc3)cc12 : -45.7% (active)

So, CCC(C)NC(=O)c1ccc(N2CCC3(CC2)OCCO3)c([N+](=O)[O-])c1 (stereo not given) ? Its activity change, negative = inhibition was -7.67% (inactive)

Recorded activity change, negative = inhibition (compound O=[N+]([O-])c1cc(S(=O)(=O)CCCN2CCOCC2)ccc1F ): -12.6% (inactive)

// COc1ccc(NC(=O)Nc2cccc(-c3noc(C)n3)c2)cc1 : activity change, negative = inhibition value = 8.89% (inactive)

// recorded activity change, negative = inhibition for CC(C)(C)c1cc(C(=O)NN)n(Cc2ccc(Cl)cc2Cl)n1 : -27.8% (inactive)

Quick note, activity change, negative = inhibition for CCn1cc(CN2CCC(C(=O)Nc3cccc(-c4cccc(Cl)c4)c3)CC2)c(C)n1 landed at -1.32% (inactive)

Record COc1cc(C(=O)NNC(=O)c2ccc(S(=O)(=O)N3CCCCC3)cc2)cc(OC)c1OC . Reported activity change, negative = inhibition: -4.12% (inactive)

Memo: COc1ccc(C(=O)c2oc3ccccc3c2NC(=O)COc2cccc(C)c2)cc1 , reported activity change, negative = inhibition: -10.1% (inactive)

Query CCN(c1ccccc1)S(=O)(=O)c1cc(C(=O)NCc2ccccn2)ccc1C yields activity change, negative = inhibition of -89.3% (active)

Lab note: measured activity change, negative = inhibition of O=CN1CCN(C(=O)c2ccc3c(c2)OCO3)CC1 was 11.7% (inactive)

Notebook: Cc1ccc(C(=O)Cn2cccn2)cc1 , activity change, negative = inhibition read as -6.01% (inactive)
